Listing of recorded CC50 at 6 days by entry.
Assay: Cytotoxic effect in uninfected MT4 cultures
Type: cell-based
Conditions: human, uninfected MT4 cells; single agent; uninfected MT4

- Molecule Smiles: "Clc1ccc2c(c1)/C(=C/CCC1CCNCC1)c1ccccc1S2"
  CC50 at 6 days: "> 4 µM"

Problem: Give the reported CC50 at 6 days for this molecule. "Cc1cn([C@H]2C[C@H](N=[N+]=[N-])[C@@H](CO)O2)c(=O)[nH]c1=O"
Result: > 3 µM

* * *

Listing of recorded FIC index by entry.
Tested on: E. coli MDR clinical isolates
Assay: FIC index, synergy with antibiotics (Table 4a)
Type: cell-based
Details: with Tetracycline; 8 MDR E. coli; mean; compound at ¼ of MIC

Here are 3 compounds together with their reported answers.
- Compound: "Clc1ccc2c(c1)/C(=C/CCN1CCNCC1)c1ccccc1S2 [Compound 1, N-dealkyl-transclopenthixol]"
  Data Value: 0.47
- Compound: "Clc1ccc2c(c1)/C(=C/CCC1CCNCC1)c1ccccc1S2"
  Data Value: 0.44
- Compound: "OCCN1CCN(CC/C=C2\\c3ccccc3Sc3ccc(Cl)cc32)CC1 [Compound 2, trans-clopentixol]"
  Data Value: 0.47

Now turn to the next compound.
Problem: Give the reported FIC index for this compound. "OCCN1CCC(CC/C=C2\c3ccccc3Sc3ccc(Cl)cc32)CC1"
Result: 0.44
